So I've got a bunch of molecules here, and I need their Mean accuracy (%), Table S18 values.
# procedure_details: Long-term storage stability of antibiotics in combination with fosfomycin spiked in plasma/CAMHB (−30 °C, −80 °C)
# Assay type: physicochemical
# experimental_parameters: CAMHB, combination with fosfomycin, 4 weeks at -80 °C; MQC (nominal as E14)

[Q] Respond only with Mean accuracy (%), Table S18 recorded for CO/N=C(\C(=O)N[C@@H]1C(=O)N2C(C(=O)[O-])=C(C[N+]3(C)CCCC3)CS[C@H]12)c1csc(N)n1 [Cefepime, cefepime]
[A] 102.8%

[Q] Respond only with Mean accuracy (%), Table S18 recorded for C[C@]1(Cn2ccnn2)[C@H](C(=O)O)N2C(=O)C[C@H]2S1(=O)=O [Tazobactam, tazobactam]
[A] 103.3%

[Q] Respond only with Mean accuracy (%), Table S18 recorded for C[C@@H]1O[C@@H]1P(=O)(O)O [Fosfomycin, fosfomycin]
[A] 98.2%

[Q] Respond only with Mean accuracy (%), Table S18 recorded for C[C@H]1[C@H](NC(=O)/C(=N\OC(C)(C)C(=O)O)c2csc(N)n2)C(=O)N1S(=O)(=O)O [Aztreonam, aztreonam]
[A] 96.0%

[Q] Respond only with Mean accuracy (%), Table S18 recorded for CCN1CCN(C(=O)N[C@@H](C(=O)N[C@@H]2C(=O)N3[C@@H]2SC(C)(C)[C@@H]3C(=O)O)c2ccccc2)C(=O)C1=O [Piperacillin, piperacillin]
[A] 90.6%

The measured values listed here are drawn from paper PMC8772704.
